System: KCHSC (kochia)
Assay: Pre-emergence herbicidal activity, cool season
Type: in vivo, Kochia scoparia
Conditions: lowest tested rate with 80% or greater inhibition; rates 300, 100, 30, 10 g/ha; about 14 days
Quantity kind: Pre-emergence activity GR80, KCHSC (g/ha)
Use g/ha as the unit, but write only the number.

>>> print(df.to_string())
                                   compound  assayed_target  value_reported
0  CCN(CC)C(=O)n1cnc(S(=O)(=O)C(F)(F)F)n1 [Example 2]  KCHSC (kochia)             300
1  CCN(CC)C(=O)n1cnc(S(=O)(=O)C(F)(F)C(F)(F)Br)n1 [Example 4]  KCHSC (kochia)             100
2  CCN(CC)C(=O)n1cnc(S(=O)(=O)C(F)(F)SC)n1 [Example 9]  KCHSC (kochia)             300
3  CCN(CC)C(=O)n1cnc(S(=O)(=O)C(F)(F)C(=O)c2ccccc2)n1 [Example 6]  KCHSC (kochia)             300
4  CCN(CC)C(=O)n1cnc(S(=O)(=O)C(F)(F)Br)n1 [Example 1]  KCHSC (kochia)             300

Next compound, please.
Which value of Pre-emergence activity GR80, KCHSC has been reported for CCN(CC)C(=O)n1cnc(S(=O)(=O)C(F)(F)Cl)n1 [Example 3] in the records?
300
